This collection of values is drawn from paper PMC7057333.

TARGET SYSTEM: LSD1 (Homo sapiens, UniProt O60341)
Construct: made in house; host or cells: Escherichia coli Rosetta 2 (pET15b)
ASSAY NOTES: SPR biosensor interaction kinetic assay with immobilized LSD1 (15 °C, TBS-T with DTT)
Assay type: binding
pKd: −log10 of the molar value.
ASSAY ENDPOINT: pKd

1. CSCC[C@H](NC(=O)[C@@H](NC(=O)[C@H](CCCNC(=N)N)NC(=O)[C@H](C)N)[C@@H](C)O)C(=O)N[C@@H](CCC(N)=O)C(=O)N[C@H](C(=O)N[C@@H](C)C(=O)N[C@@H](CCCNC(=N)N)C(=O)N[C@@H](CCCCN)C(=O)O)[C@@H](C)O [Peptide 5] ... < 3.70
2. CSCC[C@H](NC(=O)[C@@H](NC(=O)[C@H](CCCNC(=N)N)NC(=O)[C@H](C)N)[C@@H](C)O)C(=O)N[C@@H](CCC(N)=O)C(=O)N[C@H](C(=O)N[C@@H](C)C(=O)N[C@@H](CCCNC(=N)N)C(=O)N[C@@H](CCCCN)C(=O)N[C@@H](CO)C(=O)N[C@H](C(=O)NCC(=O)NCC(=O)N[C@@H](CCCCN)C(=O)N[C@@H](C)C(=O)O)[C@@H](C)O)[C@@H](C)O [Peptide 2] ... 5.30
3. CCCCCC[C@H](NC(=O)[C@@H](NC(=O)[C@H](CCCNC(=N)N)NC(=O)[C@H](C)N)[C@@H](C)O)C(=O)N[C@@H](CCC(N)=O)C(=O)N[C@H](C(=O)N[C@@H](C)C(=O)N[C@@H](CCCNC(=N)N)C(=O)N[C@@H](CCCCN)C(=O)N[C@@H](CO)C(=O)N[C@H](C(N)=O)[C@@H](C)O)[C@@H](C)O [Peptide 16, ART(Aoc)QTARKST-NH2] ... < 3.70
4. CCCC[C@H](NC(=O)[C@@H](NC(=O)[C@H](CCCNC(=N)N)NC(=O)[C@H](C)N)[C@@H](C)O)C(=O)N[C@@H](CCC(N)=O)C(=O)N[C@H](C(=O)N[C@@H](C)C(=O)N[C@@H](CCCNC(=N)N)C(=O)N[C@@H](CCCCN)C(=O)N[C@@H](CO)C(=O)N[C@H](C(N)=O)[C@@H](C)O)[C@@H](C)O [Peptide 15, ART(Nle)QTARKST-NH2] ... < 3.70
5. C[C@H](N)C(=O)N[C@@H](CCCNC(=N)N)C(=O)N[C@H](C(=O)N[C@@H](CCc1ccccc1)C(=O)N[C@@H](CCC(N)=O)C(=O)N[C@H](C(=O)N[C@@H](C)C(=O)N[C@@H](CCCNC(=N)N)C(=O)N[C@@H](CCCCN)C(=O)N[C@@H](CO)C(=O)N[C@H](C(N)=O)[C@@H](C)O)[C@@H](C)O)[C@@H](C)O [Peptide 17, ART(homoPhe)QTARKST-NH2] ... < 3.70
6. CSCC[C@@H]1NC(=O)[C@@H](NC(=O)[C@H](CCCNC(=N)N)NC(=O)[C@H](C)N)C/C=C\C[C@@H](C(=O)N[C@@H](C)C(=O)N[C@@H](CCCNC(=N)N)C(=O)N[C@@H](CCCCN)C(=O)N[C@@H](CO)C(=O)N[C@H](C(N)=O)[C@@H](C)O)NC(=O)[C@H](CCC(N)=O)NC1=O [Peptide 21, ARG^alyMQG^alyARKST-NH2] ... < 4.00
7. C[C@H](N)C(=O)N[C@@H](CCCNC(=N)N)C(=O)N[C@H](C(=O)N[C@@H](CCCCN)C(=O)N[C@@H](CCC(N)=O)C(=O)N[C@H](C(=O)N[C@@H](C)C(=O)N[C@@H](CCCNC(=N)N)C(=O)N[C@@H](CCCCN)C(=O)N[C@@H](CO)C(=O)N[C@H](C(N)=O)[C@@H](C)O)[C@@H](C)O)[C@@H](C)O [Peptide 9] ... < 4.00
